Tested on: OVCAR-5 ovarian
assay.protocol: NCI-60 one-dose screen, 48 h (100 = growth as untreated, 0 = no growth, -100 = all killed)
applied.conditions: 10 µM unless noted
The panel holds about 83,000 compounds, 20% with a hit somewhere; the sample as a whole holds those more often.
Binary label based on growth with cut-off 90%: below gives true (1), not below gives false (0).

Worked set:
Task item: Below 90% on growth? Entry NC(=S)N/N=C/c1ncccc1O
Reply: true (1)

Task item: Below 90% on growth? Entry O=C(Nc1ccc(Cl)c(Cl)c1)OCc1ccco1
Reply: true (1)

Here is another compound to look at.
Task item: Below 90% on growth? Entry CC(=O)Nc1ccc(C(=O)CCl)cc1
Reply: false (0)
